Origin of the recorded values: patent US20110039847A1

Biological target: SIRT1 (Homo sapiens, UniProt Q96EB6)
Sequence (Q96EB6 1-747): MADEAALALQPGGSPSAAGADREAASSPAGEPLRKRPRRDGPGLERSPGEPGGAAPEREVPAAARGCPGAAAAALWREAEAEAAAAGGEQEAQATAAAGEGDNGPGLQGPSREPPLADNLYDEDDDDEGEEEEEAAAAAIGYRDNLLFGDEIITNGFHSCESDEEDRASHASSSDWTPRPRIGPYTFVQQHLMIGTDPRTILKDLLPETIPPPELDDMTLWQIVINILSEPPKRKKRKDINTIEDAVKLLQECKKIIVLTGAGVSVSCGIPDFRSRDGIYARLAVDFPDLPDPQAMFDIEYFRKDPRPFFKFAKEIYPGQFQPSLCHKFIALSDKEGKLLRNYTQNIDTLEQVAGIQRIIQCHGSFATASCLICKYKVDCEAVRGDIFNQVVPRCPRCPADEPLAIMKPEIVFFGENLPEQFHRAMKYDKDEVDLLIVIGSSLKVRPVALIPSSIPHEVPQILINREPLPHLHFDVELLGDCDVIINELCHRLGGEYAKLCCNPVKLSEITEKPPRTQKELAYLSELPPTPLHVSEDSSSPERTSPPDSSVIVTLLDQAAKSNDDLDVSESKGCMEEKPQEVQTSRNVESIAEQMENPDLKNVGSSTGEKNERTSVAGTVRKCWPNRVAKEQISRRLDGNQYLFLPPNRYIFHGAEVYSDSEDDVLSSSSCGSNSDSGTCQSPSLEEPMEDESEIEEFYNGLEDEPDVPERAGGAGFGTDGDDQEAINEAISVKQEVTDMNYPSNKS
Experiment: Mass spectrometry based SIRT1 deacetylation (activation) assay
Type: biochemical
Conditions: 25 min, 0.5 μM peptide substrate, 120 μM βNAD+, 10 nM SIRT1, 25 min at 25° C., read-out: % Fold Act. (percent maximum fold activation)
Entries annotated with measured Emax

Use these answered entries as a reference point.
INSERT INTO assay_data (compound, tgt, assayvalue) VALUES
  ('CCN(CCN(C)C)c1cc(C(=O)Nc2ccccc2C(=O)NC2CCNC2)nc(-c2ccccc2)n1 (centres unmarked)', 'SIRT1 (Homo sapiens, UniProt Q96EB6)', '≥ 300%'),
  ('O=C(Nc1ccccc1-c1nnc(N2CCOCC2)s1)c1cc(NC(CO)CO)nc(-c2ccccc2)n1', 'SIRT1 (Homo sapiens, UniProt Q96EB6)', '≥ 300%'),
  ('CN(C)CCNc1cc(C(=O)Nc2ccccc2-c2ncc(C(C)(C)C)o2)nc(-c2ccccc2)n1', 'SIRT1 (Homo sapiens, UniProt Q96EB6)', '150 to 300%'),
  ('CCN(CCN(C)C)c1cc(C(=O)Nc2ccccc2-c2nnc(C3CCC3)s2)nc(-c2ccccc2)n1', 'SIRT1 (Homo sapiens, UniProt Q96EB6)', '150 to 300%'),
  ('CN(C)CCNc1cc(C(=O)Nc2ccccc2C(=O)Nc2ccccc2S(C)(=O)=O)nc(-c2ccccc2)n1', 'SIRT1 (Homo sapiens, UniProt Q96EB6)', '150 to 300%');

Request: Entry `CCN1CCN(c2cc(C(=O)Nc3ccccc3-c3nnc(N4CCOCC4)s3)nc(-c3ccccc3)n2)CC1=O` has what Emax?
Response: 150 to 300%

Request: Now consider `CN(C)CCNc1cc(C(=O)Nc2ccccc2-c2nccs2)nc(-c2ccccc2)n1` and answer again.
Response: ≥ 300%

Request: Now consider `CCCCc1nnc(-c2ccccc2NC(=O)c2cc(NCCN(C)C)nc(-c3ccccc3)n2)s1` and answer again.
Response: < 150%

* * *

Target: SIRT1 (Homo sapiens)
Test: Mass spectrometry based SIRT1 deacetylation (activation) assay
Format: biochemical
Conditions: 25 min, 0.5 μM peptide substrate, 120 μM βNAD+, 10 nM SIRT1, 25 min at 25° C., read-out: % Fold Act. (percent maximum fold activation)
readoutLabel: Emax

Request: Please state recorded Emax (tested on SIRT1 (Homo sapiens)) of `CCc1nnc(-c2ccccc2NC(=O)c2cc(N(C)CCN(C)C)nc(-c3ccccc3)n2)s1`
Response: 150 to 300%

Request: Now consider `CC(C)(C)c1cnc(-c2ccccc2NC(=O)c2cc(OC[C@@H](O)CO)cc(-c3ccccc3)n2)s1` and answer again.
Response: ≥ 300%

Request: Now consider `COCCN(CCOC)c1cc(C(=O)Nc2ccccc2-c2nnc(C(=O)N3CCOCC3)s2)nc(-c2ccccc2)n1` and answer again.
Response: ≥ 300%

Request: Now consider `Cc1ccc(NC(=O)c2ccccc2NC(=O)c2cc(NCCN(C)C)nc(-c3ccccc3)n2)cc1` and answer again.
Response: 150 to 300%

Request: Now consider `O=C(Nc1ccccc1-c1nncs1)c1cc(NC(CO)CO)nc(-c2ccccc2)n1` and answer again.
Response: ≥ 300%

Request: Now consider `O=C(Nc1ccccc1-c1ncc(-c2ccccc2)s1)c1cc(NCCN2CCCCC2)nc(-c2ccccc2)n1` and answer again.
Response: 150 to 300%

Request: Now consider `CCCCNC(=O)c1ccccc1NC(=O)c1cc(NCCN(C)C)nc(-c2ccccc2)n1` and answer again.
Response: < 150%

Request: Now consider CN(C)CCNc1cc(C(=O)Nc2ccccc2C(=O)NCC[S+](C)[O-])nc(-c2ccccc2)n1 (stereo not drawn) and answer again.
Response: 150 to 300%

Request: Now consider `O=C(Nc1ccccc1-c1nncs1)c1cc(OC[C@@H](O)CO)nc(-c2ccccc2)n1` and answer again.
Response: ≥ 300%

Request: Now consider `CCN(CCN(C)C)c1cc(C(=O)Nc2ccccc2-c2nnc(CC(C)C)s2)nc(-c2ccccc2)n1` and answer again.
Response: 150 to 300%

* * *

Entries annotated with measured Emax
Biological target: SIRT1 (Homo sapiens, UniProt Q96EB6)
Assay: Mass spectrometry based SIRT1 deacetylation (activation) assay
Format: biochemical
Settings: 25 min, 0.5 μM peptide substrate, 120 μM βNAD+, 10 nM SIRT1, 25 min at 25° C., read-out: % Fold Act. (percent maximum fold activation)

Use these answered entries as a reference point.
INSERT INTO assay_data (molecule, readoutlabel, assayvalue) VALUES
  ('COCCNc1cc(C(=O)Nc2ccccc2-c2nnc(N3CCN4CCC[C@H]4C3)s2)nc(-c2ccccc2)n1', 'Emax', '150 to 300%'),
  ('CN(C)CCNc1cc(C(=O)Nc2ccccc2C(=O)Nc2c(Cl)cccc2Cl)nc(-c2ccccc2)n1', 'Emax', '≥ 300%'),
  ('CN(C)CCNc1cc(C(=O)Nc2ccccc2-c2csc(-c3ccccc3)n2)nc(-c2ccccc2)n1', 'Emax', '150 to 300%'),
  ('CN(C)CCNc1cc(C(=O)Nc2ccccc2C(=O)Nc2cccc(C(N)=O)c2)nc(-c2ccccc2)n1', 'Emax', '≥ 300%'),
  ('CCN(CCN(C)C)c1cc(C(=O)Nc2ccccc2-c2nnc(C(N)=O)s2)nc(-c2ccccc2)n1', 'Emax', '150 to 300%'),
  ('CCN(CCN(C)C)c1cc(C(=O)Nc2ccccc2-c2nnc(NS(C)(=O)=O)s2)nc(-c2ccccc2)n1', 'Emax', '≥ 300%'),
  ('CN(C)CCNc1cc(C(=O)Nc2ccccc2-c2ccncc2)nc(-c2ccccc2)n1', 'Emax', '150 to 300%'),
  ('CCN(CCN(C)C)c1cc(C(=O)Nc2ccccc2-c2nnc(C(F)=C3CCOCC3)s2)nc(-c2ccccc2)n1', 'Emax', '≥ 300%'),
  ('CCN(CCN(C)C)c1cc(C(=O)Nc2ccccc2C(=O)c2nccs2)nc(-c2ccccc2)n1', 'Emax', '≥ 300%'),
  ('Cc1cnc(-c2ccccc2NC(=O)c2cc(NCCN(C)C)nc(-c3ccccc3)n2)s1', 'Emax', '≥ 300%');

Proceed to the following item.
Request: Please state recorded Emax (tested on SIRT1 (Homo sapiens, UniProt Q96EB6)) of CCN(CCN(C)C)c1cc(C(=O)Nc2ccccc2C(=O)NC2CCCNC2)nc(-c2ccccc2)n1 (centres unmarked)
Response: ≥ 300%

* * *

Entries annotated with measured Emax
Molecular target: SIRT1 (Homo sapiens)
Assay: Mass spectrometry based SIRT1 deacetylation (activation) assay
Type: biochemical
Settings: 25 min, 0.5 μM peptide substrate, 120 μM βNAD+, 10 nM SIRT1, 25 min at 25° C., read-out: % Fold Act. (percent maximum fold activation)

Use these answered entries as a reference point.
INSERT INTO assay_data (molecule, readoutlabel, assayvalue) VALUES
  ('CN(C)CCNc1cc(C(=O)Nc2ccccc2-c2nnc(-c3ccccn3)s2)nc(-c2ccccc2)n1 [Compound 73]', 'Emax', '≥ 300%'),
  ('CN(C)CCNc1cc(C(=O)Nc2ccccc2C(=O)N(C)c2ccccc2)nc(-c2ccccc2)n1 [Compound 151]', 'Emax', '150 to 300%'),
  ('CSCCNC(=O)c1ccccc1NC(=O)c1cc(NCCN(C)C)nc(-c2ccccc2)n1 [Compound 148]', 'Emax', '≥ 300%'),
  ('CN1CCN(c2cc(C(=O)Nc3ccccc3-c3nncs3)nc(-c3ccccc3)n2)CC1=O [Compound 112]', 'Emax', '≥ 300%'),
  ('CCN(CCN(C)C)c1cc(C(=O)Nc2ccccc2-c2ncc(C(C)(C)C)s2)nc(-c2ccccc2)c1 [Compound 42]', 'Emax', '150 to 300%');

Request: Entry O=C1CN(c2cc(C(=O)Nc3ccccc3-c3nnc(C(=O)N4CCOCC4)s3)nc(-c3ccccc3)n2)CCN1 [Compound 89] has what Emax?
Response: ≥ 300%

Request: Now consider CCCCC(=O)c1ccccc1NC(=O)c1cc(NCCN(C)C)nc(-c2ccccc2)n1 [Compound 127] and answer again.
Response: 150 to 300%

Request: Now consider CCN(CCN(C)C)c1cc(C(=O)Nc2ccccc2C(=O)Nc2ccccc2C(N)=O)nc(-c2ccccc2)n1 [Compound 160] and answer again.
Response: ≥ 300%

Request: Now consider O=C(Nc1ccccc1-c1nnc(C(=O)N2CCOCC2)s1)c1cc(NC(CO)CO)nc(-c2ccccc2)n1 [Compound 90] and answer again.
Response: ≥ 300%
